Listed here: items and their measured IC50.
system.name: Glutaminase kidney isoform, mitochondrial (Homo sapiens)
Sequence (O94925 whole entry, canonical isoform): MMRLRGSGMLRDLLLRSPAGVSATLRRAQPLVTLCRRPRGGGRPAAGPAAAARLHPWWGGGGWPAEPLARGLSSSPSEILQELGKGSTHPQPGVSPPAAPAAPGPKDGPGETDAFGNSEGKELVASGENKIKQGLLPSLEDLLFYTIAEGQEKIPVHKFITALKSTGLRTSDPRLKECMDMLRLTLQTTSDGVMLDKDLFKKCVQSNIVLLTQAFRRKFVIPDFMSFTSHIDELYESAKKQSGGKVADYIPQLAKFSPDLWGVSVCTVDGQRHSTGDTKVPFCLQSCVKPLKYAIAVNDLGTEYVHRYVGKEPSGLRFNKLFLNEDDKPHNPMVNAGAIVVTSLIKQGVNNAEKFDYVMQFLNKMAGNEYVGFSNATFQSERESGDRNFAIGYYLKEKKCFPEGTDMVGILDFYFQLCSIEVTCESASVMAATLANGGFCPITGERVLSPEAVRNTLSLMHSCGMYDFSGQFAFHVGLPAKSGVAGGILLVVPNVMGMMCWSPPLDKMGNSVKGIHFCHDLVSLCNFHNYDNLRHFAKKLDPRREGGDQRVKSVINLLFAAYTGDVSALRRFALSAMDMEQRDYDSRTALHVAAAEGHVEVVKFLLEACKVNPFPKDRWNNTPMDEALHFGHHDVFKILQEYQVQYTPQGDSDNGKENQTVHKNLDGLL
assay.remarks: Inhibition of GLS1 (unknown origin) preincubated for 10 mins followed by glutamine addition measured after 60 mins

{"smiles.code": "CCCCOc1cccc(CC(=O)Nc2ccc(CCCCc3nnc(NC(=O)CCCC)s3)nn2)c1", "sign.qualifier": "=", "IC50, nM": 27}
{"smiles.code": "C=CCCOc1cccc(CC(=O)Nc2nnc(CCCCc3ccc(NC(=O)CC=C)nn3)s2)c1", "sign.qualifier": ">", "IC50, nM": 5000}
{"smiles.code": "C=CCCCCOc1cccc(CC(=O)Nc2nnc(CCCCc3ccc(NC(=O)CCC=C)nn3)s2)c1", "sign.qualifier": "=", "IC50, nM": 34}
{"smiles.code": "C#CCOc1cccc(CC(=O)Nc2ccc(CCCCc3nnc(NC(=O)CCCC)s3)nn2)c1", "sign.qualifier": "=", "IC50, nM": 1050}
{"smiles.code": "CCCCCCCOc1cccc(CC(=O)Nc2ccc(CCCCc3nnc(NC(=O)CCCC)s3)nn2)c1", "sign.qualifier": "=", "IC50, nM": 17}
{"smiles.code": "CCCCNc1cccc(CC(=O)Nc2ccc(CCCCc3nnc(NC(=O)CCCC)s3)nn2)c1", "sign.qualifier": ">", "IC50, nM": 20000}
{"smiles.code": "CCCCC(=O)Nc1nnc(CCCCc2ccc(NC(=O)Cc3cccc(O)c3)nn2)s1", "sign.qualifier": "=", "IC50, nM": 170}
{"smiles.code": "CCCCC(=O)Nc1nnc(CCCCc2ccc(NC(=O)Cc3cccc(OCCC)c3)nn2)s1", "sign.qualifier": "=", "IC50, nM": 130}
{"smiles.code": "C=CCCOc1cccc(CC(=O)Nc2nnc(CCCCc3ccc(NC(=O)CCC=C)nn3)s2)c1", "sign.qualifier": "=", "IC50, nM": 240}
